system: Staphylococcus aureus; assay: Antibacterial activity against Staphylococcus aureus ATCC 29213 incubated overnight followed by compound transfer to TSB medium measured after overnight incubation by cell counting; assay type: functional
Checkbox rule: MBC lower than 20 µM = Fulfilled; MBC not lower than 20 µM = Not fulfilled.

- COMPOUND: "Cc1c(O)c(C(=O)C(C)C)c(O)c2c1oc1c(C)c(O)c(C(=O)C(C)C)c(O)c12"
  LABEL: "Fulfilled"
- COMPOUND: "CC[C@H](C)C(=O)c1c(O)c(C)c2oc3c(C)c(O)c(C(=O)C(C)C)c(O)c3c2c1O"
  LABEL: "Fulfilled"
- COMPOUND: "CC[C@H](C)C(=O)c1c(O)c(C)c(O)c2c1oc1c(C(=O)[C@@H](C)CC)c(O)c(C)c(O)c12"
  LABEL: "Fulfilled"
- COMPOUND: "Cc1c(O)c(C(=O)C(C)C)c2oc3c(C(=O)C(C)C)c(O)c(C)c(O)c3c2c1O"
  LABEL: "Not fulfilled"
- COMPOUND: "CC[C@H](C)C(=O)c1c(O)c(C)c2oc3c(C)c(O)c(C(=O)CC(C)C)c(O)c3c2c1O [RHODOMYRTOXIN C]"
  LABEL: "Fulfilled"
- COMPOUND: "CC[C@H](C)C(=O)c1c(O)c(C)c(O)c2c1oc1c(C(=O)C(C)C)c(O)c(C)c(O)c12"
  LABEL: "Not fulfilled"
